tested on: brine shrimp (Artemia salina); format: in vivo; details: Artemia salina; n.a. = no activity
The entries below are paired with their reported brine shrimp lethality (LD50).
Assay Metric: brine shrimp lethality (LD50) (µg/mL)

* C=CC(C)(C)c1[nH]c2c(CC=C(C)C)cc(CC=C(C)C)cc2c1C[C@@H]1NC(=O)C(=C)NC1=O [Compound 10, didehydroechinulin] | 27.1
* C=CC(C)(C)c1[nH]c2c(CC=C(C)CO)cc(CC=C(C)C)cc2c1CC1NC(=O)C(C)NC1=O (stereo not drawn) [Compound 4, 29-hydroxyechinulin] | 140.6
* C=CC(C)(C)c1[nH]c2cc(CC=C(C)C)ccc2c1C=c1[nH]c(=O)c(=C)[nH]c1=O | 70.1
* C=CC(C)(C)c1[nH]c2cc(CC=C(C)C)ccc2c1/C=C1\NC(=O)C(C)(OC)NC1=O (stereo not drawn) | 19.4
* C=CC(C)(C)c1[nH]c2c(CC=C(C)CO)cc(CC=C(C)C)cc2c1CC1NC(=O)C(C)NC1=O (stereo not drawn) [Compound 3, 30-Hydroxyechinulin] | 138.1
* C=CC(C)(C)c1[nH]c2ccccc2c1/C=c1\[nH]c(=O)c(=C)[nH]c1=O | 105.2
